Test Summary: Single ascending dose
Format: in vivo, human
Measurement Context: human, plasma, oral, 200 mg, AUC(0‐T), SAD panel 4, 200 mg, fasted, n = 6; geometric mean (geometric CV%)
Value Kind: AUC (µg·h/mL)
One number for each entry, in µg·h/mL.

Value of measured AUC for the entry C[C@@H]1CCC[C@H](n2cnc(-c3cc(Cl)ccc3-n3cc(Cl)nn3)cc2=O)c2cc(ccn2)-c2c(cnn2C(F)F)NC1=O [milvexian] : 12.5

---

Test Summary: Single ascending dose
Type: in vivo, human
Measurement Context: human, plasma, oral, 200 mg, Cmax, SAD panel 4, 200 mg, fed (high-fat breakfast), n = 6; geometric mean (geometric CV%)
Value Kind: Cmax (ng/mL)
Numbers only, in ng/mL.

Entry C[C@@H]1CCC[C@H](n2cnc(-c3cc(Cl)ccc3-n3cc(Cl)nn3)cc2=O)c2cc(ccn2)-c2c(cnn2C(F)F)NC1=O [milvexian] , Cmax reported as 1640
